# assayed_target: PASK (UniProt #Q96RG2; human recombinant N-terminal GST tagged construct, residues 879-1323) (Homo sapiens, UniProt Q96RG2)
# Construct: N-terminal GST tagged construct, residues 879-1323; GST (N)
# Sequence (Q96RG2 879-1323, change not shown): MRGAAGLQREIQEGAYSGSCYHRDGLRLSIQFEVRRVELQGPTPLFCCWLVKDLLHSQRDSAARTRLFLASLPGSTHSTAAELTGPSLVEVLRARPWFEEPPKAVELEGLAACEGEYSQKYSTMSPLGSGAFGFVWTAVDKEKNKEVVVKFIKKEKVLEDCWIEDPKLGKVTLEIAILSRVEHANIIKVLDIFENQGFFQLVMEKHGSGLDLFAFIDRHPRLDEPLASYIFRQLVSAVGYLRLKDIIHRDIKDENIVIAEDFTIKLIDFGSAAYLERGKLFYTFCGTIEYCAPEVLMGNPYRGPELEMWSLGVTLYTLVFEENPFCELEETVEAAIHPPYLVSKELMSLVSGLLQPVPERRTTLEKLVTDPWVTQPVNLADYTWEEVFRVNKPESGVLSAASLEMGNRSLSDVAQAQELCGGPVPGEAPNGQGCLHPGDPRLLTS
# assay_summary: PASK ATP Radiochemical Assay
# test_context: 33P-ATP, Myelin Basic Protein substrate, read-out: IC50 Kinase Domain
pIC50: −log10 of the molar value.
Please respond with reported pIC50 for every item in the list.

Q: Please give the measured pIC50 for this molecule: "Cn1ccc(-c2cnn3c(=O)cc(-c4ccc(Cl)c(OCC(F)(F)F)c4)[nH]c23)n1"
Ans: ≥ 5.00

Q: Please give the measured pIC50 for this molecule: "Cc1cnc(-c2cnn3c(=O)cc(-c4ccc5onc(C)c5c4)[nH]c23)o1"
Ans: ≥ 5.00

Q: Please give the measured pIC50 for this molecule: "CCn1nccc1-c1cnn2c(=O)cc(-c3ccc(Cl)c(OC)c3)[nH]c12"
Ans: ≥ 5.00

Q: Please give the measured pIC50 for this molecule: "Cc1coc(-c2cnn3c(=O)cc(-c4ccc5c(c4)OCO5)[nH]c23)n1"
Ans: ≥ 5.00

Q: Please give the measured pIC50 for this molecule: "Cc1cnc(-c2cnn3c(=O)cc(-c4ccc5[nH]nnc5c4)[nH]c23)o1"
Ans: ≥ 5.00

Q: Please give the measured pIC50 for this molecule: "O=c1cc(-c2ccc3[nH]ncc3c2)[nH]c2c(-c3ncco3)cnn12"
Ans: ≥ 5.00

Q: Please give the measured pIC50 for this molecule: "COc1cc(-c2cc(=O)n3ncc(-c4ncc(C)s4)c3[nH]2)ccc1Cl"
Ans: ≥ 5.00

Q: Please give the measured pIC50 for this molecule: "Cc1cnc(-c2cnn3c(=O)cc(-c4ccc5c(c4)OCO5)[nH]c23)o1"
Ans: ≥ 5.00
